target.or.test.system: T1, human GIP receptor (human, UniProt P48546 22-466)
T1 sequence (looked up): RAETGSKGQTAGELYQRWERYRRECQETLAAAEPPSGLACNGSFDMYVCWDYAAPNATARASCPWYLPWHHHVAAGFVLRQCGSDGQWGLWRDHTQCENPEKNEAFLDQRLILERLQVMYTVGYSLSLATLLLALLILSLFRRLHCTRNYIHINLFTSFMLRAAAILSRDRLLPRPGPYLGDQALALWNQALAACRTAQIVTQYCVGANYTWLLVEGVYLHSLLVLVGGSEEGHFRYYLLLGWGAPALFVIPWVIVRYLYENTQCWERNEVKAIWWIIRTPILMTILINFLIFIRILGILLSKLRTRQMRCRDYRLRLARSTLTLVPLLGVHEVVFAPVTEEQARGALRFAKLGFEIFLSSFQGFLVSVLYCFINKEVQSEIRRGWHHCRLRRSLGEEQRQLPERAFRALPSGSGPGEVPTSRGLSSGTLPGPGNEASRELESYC
experimental.details: cell-based or functional assay
Bridges are numbered along the chain shown (N, C = ends). Where no end group is shown, it is not given here. [ ]: non-standard residue; d: D form. The star is where a group is joined. Acetyl(2-(4-imidazolyl)) = O=C(Cc1c[nH]cn1)*; Aib = CC(C)(N)C(=O)O
In this section, each of the binders is paired with its reported In vitro activity compared with native peptide (%) vs. GIP.
The answer is to be given in %; state only the numeric part.

Worked cases, In vitro activity compared with native peptide (%) vs. GIP given:
| binder | units.text | meas.value |
| --- | --- | --- |
| {Acetyl(2-(4-imidazolyl))}-[Aib]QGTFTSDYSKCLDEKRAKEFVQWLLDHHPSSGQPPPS (bridge 15-19) [Triple agonist of SEQ ID NO: 74] | % | 1 |
| Y[Aib]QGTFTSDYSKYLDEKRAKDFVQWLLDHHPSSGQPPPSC (bridge 16-20) [Triple agonist of SEQ ID NO: 76] | % | 11.7 |
| Y[Aib]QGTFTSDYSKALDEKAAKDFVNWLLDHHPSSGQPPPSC (bridge 16-20) [Triple agonist of SEQ ID NO: 99] | % | 57.7 |

Dear colleague, I am looking for the recorded In vitro activity compared with native peptide (%) vs. GIP of the following binder: {Acetyl(2-(4-imidazolyl))}-[Aib]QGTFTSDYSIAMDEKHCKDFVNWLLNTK (bridge 15-19) [Triple agonist of SEQ ID NO: 60]
8.2

Dear colleague, I am looking for the recorded In vitro activity compared with native peptide (%) vs. GIP of the following binder: Y[Aib]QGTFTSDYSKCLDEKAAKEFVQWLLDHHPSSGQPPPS (bridge 16-20) [Triple agonist of SEQ ID NO: 68]
107

Dear colleague, I am looking for the recorded In vitro activity compared with native peptide (%) vs. GIP of the following binder: H[Aib]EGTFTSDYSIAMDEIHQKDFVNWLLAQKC (bridge 16-20) [Triple agonist of SEQ ID NO: 79]
1.4

The measured values listed here are drawn from patent US20240024426A1.
